experiment: Phase I dose-escalating study, plasma pharmacokinetics in patients with solid tumor; assay type: in vivo, human; conditions: human, plasma, 250 mg, 250 mg QD (4/1), C1D28 (n = 4), plasma; read-out: AUC(0-24), mean (% CV)
Readout kind: AUC(0-t) (ng·h/mL)
Kindly provide the numeric value in ng·h/mL only, without the unit symbol.

Input line: Identify the reported AUC(0-t) for the following entry. Cc1[nH]c(/C=C2\C(=O)Nc3ccc(F)cc32)c(C)c1C(=O)NC[C@H](O)CN1CCOCC1
Output line: 9810

====

experiment: Phase I dose-escalating study, plasma pharmacokinetics in patients with solid tumor; assay type: in vivo, human; conditions: human, plasma, 150 mg, 150 mg QD 4/1 (n = 5), nominal time 20 h; read-out: Mean plasma concentration following the last dose on cycle 1 day 28
Readout kind: concentration at 20 h
Remember to quote the unit after the number.

Input line: Identify the reported concentration at 20 h for the following entry. Cc1[nH]c(/C=C2\C(=O)Nc3ccc(F)cc32)c(C)c1C(=O)NC[C@H](O)CN1CCOCC1
Output line: 42.9 ng/mL

====

Experiment: Phase I dose-escalating study, plasma pharmacokinetics in patients with solid tumor
Type: in vivo, human
Conditions: human, plasma, 200 mg, 200 mg QD 4/1 (n = 5), nominal time 1 h; read-out: Mean plasma concentration following the last dose on cycle 1 day 28
Procedure: Cmax values, or maximum total plasma concentrations, of a compound of formula 1 can be measured according to techniques well known to those skilled in the art. For example, after a compound of formula 1 has been administered to a mammal, blood samples can be taken at fixed time points over a period of time (e.g. 24 hours) and the serum or plasma concentration of compound of formula 1 can be measured using standard analytical techniques known in the art. […]
Readout kind: concentration at 1 h (ng/mL)
Kindly provide the numeric value in ng/mL only, without the unit symbol.

Input line: Identify the reported concentration at 1 h for the following entry. Cc1[nH]c(/C=C2\C(=O)Nc3ccc(F)cc32)c(C)c1C(=O)NC[C@H](O)CN1CCOCC1 [compound 1]
Output line: 408

====

test: Phase I dose-escalating study, plasma pharmacokinetics in patients with solid tumor; assay type: in vivo, human; conditions: human, plasma, 150 mg, 150 mg QD (4/1), C1D28 (n = 5), plasma; read-out: Cmax, mean (% CV)
Readout kind: Cmax (ng/mL)
Kindly provide the numeric value in ng/mL only, without the unit symbol.

Input line: Identify the reported Cmax for the following entry. Cc1[nH]c(/C=C2\C(=O)Nc3ccc(F)cc32)c(C)c1C(=O)NC[C@H](O)CN1CCOCC1 [compound 1]
Output line: 299

====

experiment: Phase I dose-escalating study, plasma pharmacokinetics in patients with solid tumor; format: in vivo, human; conditions: human, plasma, 25 mg, 25 mg QD (4/1), C1D1 (n = 6), plasma; read-out: C(trough, 24 h), mean (% CV)
Readout kind: concentration at 24 h

Input line: Identify the reported concentration at 24 h for the following entry. Cc1[nH]c(/C=C2\C(=O)Nc3ccc(F)cc32)c(C)c1C(=O)NC[C@H](O)CN1CCOCC1
Output line: 13.8 ng/mL

====

experiment: Phase I dose-escalating study, plasma pharmacokinetics in patients with solid tumor; type: in vivo, human; conditions: human, plasma, 250 mg, 250 mg QD (4/1), C2D28 (n = 4), plasma; read-out: tmax, mean (% CV)
Readout kind: Tmax
Remember to quote the unit after the number.

Input line: Identify the reported Tmax for the following entry. Cc1[nH]c(/C=C2\C(=O)Nc3ccc(F)cc32)c(C)c1C(=O)NC[C@H](O)CN1CCOCC1
Output line: 5.5 h

====

test: Phase I dose-escalating study, plasma pharmacokinetics in patients with solid tumor; format: in vivo, human; conditions: human, plasma, 25 mg, 25 mg QD 4/1 (n = 6), nominal time 2 h; read-out: Mean plasma concentration following the last dose on cycle 1 day 28
Readout kind: concentration at 2 h

Input line: Identify the reported concentration at 2 h for the following entry. Cc1[nH]c(/C=C2\C(=O)Nc3ccc(F)cc32)c(C)c1C(=O)NC[C@H](O)CN1CCOCC1
Output line: 0.0467 µg/mL

====

test: Phase I dose-escalating study, plasma pharmacokinetics in patients with solid tumor; format: in vivo, human; details: human, plasma, 200 mg QD, 200 mg QD 4/1 (n = 5), nominal time 8 h; read-out: Mean plasma concentration following the last dose on cycle 1 day 28
Readout kind: concentration at 8 h (ng/mL)
Kindly provide the numeric value in ng/mL only, without the unit symbol.

Input line: Identify the reported concentration at 8 h for the following entry. Cc1[nH]c(/C=C2\C(=O)Nc3ccc(F)cc32)c(C)c1C(=O)NC[C@H](O)CN1CCOCC1
Output line: 349

====

assay: Phase I dose-escalating study, plasma pharmacokinetics in patients with solid tumor; format: in vivo, human; details: human, plasma, 200 mg, 200 mg QD (4/1), C1D1 (n = 6), plasma; read-out: AUC(0-24), mean (% CV)
Readout kind: AUC(0-t)
Remember to quote the unit after the number.

Input line: Identify the reported AUC(0-t) for the following entry. Cc1[nH]c(/C=C2\C(=O)Nc3ccc(F)cc32)c(C)c1C(=O)NC[C@H](O)CN1CCOCC1 [compound 1]
Output line: 3440 ng·h/mL

====

experiment: Phase I dose-escalating study, plasma pharmacokinetics in patients with solid tumor; format: in vivo, human; details: human, plasma, 100 mg, 100 mg QD 4/1 (n = 6), nominal time 72 h; read-out: Mean plasma concentration following the last dose on cycle 1 day 28
Readout kind: concentration at 72 h
Remember to quote the unit after the number.

Input line: Identify the reported concentration at 72 h for the following entry. Cc1[nH]c(/C=C2\C(=O)Nc3ccc(F)cc32)c(C)c1C(=O)NC[C@H](O)CN1CCOCC1 [compound 1]
Output line: 16.1 ng/mL

====

test: Phase I dose-escalating study, plasma pharmacokinetics in patients with solid tumor; type: in vivo, human; details: human, plasma, oral, 100 mg QD, 100 mg QD 4/1 (n = 6), nominal time 12 h; read-out: Mean plasma concentration following the last dose on cycle 1 day 28
Readout kind: concentration at 12 h (ng/mL)
Kindly provide the numeric value in ng/mL only, without the unit symbol.

Input line: Identify the reported concentration at 12 h for the following entry. Cc1[nH]c(/C=C2\C(=O)Nc3ccc(F)cc32)c(C)c1C(=O)NC[C@H](O)CN1CCOCC1 [compound 1]
Output line: 204

====

assay: Phase I dose-escalating study, plasma pharmacokinetics in patients with solid tumor; assay type: in vivo, human; conditions: human, plasma, 100 mg, 100 mg QD Continuous (n = 4), nominal time 0 h; read-out: Mean plasma concentration following the last dose on cycle 1 day 28
Readout kind: concentration at 0 h (ng/mL)
Kindly provide the numeric value in ng/mL only, without the unit symbol.

Input line: Identify the reported concentration at 0 h for the following entry. Cc1[nH]c(/C=C2\C(=O)Nc3ccc(F)cc32)c(C)c1C(=O)NC[C@H](O)CN1CCOCC1
Output line: 284

====

assay: Phase I dose-escalating study, plasma pharmacokinetics in patients with solid tumor; assay type: in vivo, human; conditions: human, plasma, 250 mg QD, 250 mg QD 4/1 (n = 6), nominal time 8 h; read-out: Mean plasma concentration following the last dose on cycle 1 day 28
Readout kind: concentration at 8 h (ng/mL)
Kindly provide the numeric value in ng/mL only, without the unit symbol.

Input line: Identify the reported concentration at 8 h for the following entry. Cc1[nH]c(/C=C2\C(=O)Nc3ccc(F)cc32)c(C)c1C(=O)NC[C@H](O)CN1CCOCC1
Output line: 161

====

assay: Phase I dose-escalating study, plasma pharmacokinetics in patients with solid tumor; assay type: in vivo, human; details: human, plasma, 50 mg, 50 mg QD 4/1 (n = 5), nominal time 20 h; read-out: Mean plasma concentration following the last dose on cycle 1 day 28
Readout kind: concentration at 20 h (ng/mL)
Kindly provide the numeric value in ng/mL only, without the unit symbol.

Input line: Identify the reported concentration at 20 h for the following entry. Cc1[nH]c(/C=C2\C(=O)Nc3ccc(F)cc32)c(C)c1C(=O)NC[C@H](O)CN1CCOCC1 [compound 1]
Output line: 30.5

====

test: Phase I dose-escalating study, plasma pharmacokinetics in patients with solid tumor; type: in vivo, human; details: human, plasma, 250 mg, 250 mg QD (4/1), C1D1 (n = 6), plasma; read-out: t½, mean (% CV) (converted)
Readout kind: half-life

Input line: Identify the reported half-life for the following entry. Cc1[nH]c(/C=C2\C(=O)Nc3ccc(F)cc32)c(C)c1C(=O)NC[C@H](O)CN1CCOCC1 [compound 1]
Output line: 11.5 h

====

assay: Phase I dose-escalating study, plasma pharmacokinetics in patients with solid tumor; type: in vivo, human; conditions: human, plasma, 100 mg, 100 mg QD (4/1), C2D28 (n = 4), plasma; read-out: AUC(0-24), mean (% CV)
Readout kind: AUC(0-t) (ng·h/mL)
Kindly provide the numeric value in ng·h/mL only, without the unit symbol.

Input line: Identify the reported AUC(0-t) for the following entry. Cc1[nH]c(/C=C2\C(=O)Nc3ccc(F)cc32)c(C)c1C(=O)NC[C@H](O)CN1CCOCC1 [compound 1]
Output line: 2800

Data credit: patent US20090012085A1
